Assay read-out IC50 on UniProtKB P12785; records merged from the literature.
Sequence (P12785 whole entry): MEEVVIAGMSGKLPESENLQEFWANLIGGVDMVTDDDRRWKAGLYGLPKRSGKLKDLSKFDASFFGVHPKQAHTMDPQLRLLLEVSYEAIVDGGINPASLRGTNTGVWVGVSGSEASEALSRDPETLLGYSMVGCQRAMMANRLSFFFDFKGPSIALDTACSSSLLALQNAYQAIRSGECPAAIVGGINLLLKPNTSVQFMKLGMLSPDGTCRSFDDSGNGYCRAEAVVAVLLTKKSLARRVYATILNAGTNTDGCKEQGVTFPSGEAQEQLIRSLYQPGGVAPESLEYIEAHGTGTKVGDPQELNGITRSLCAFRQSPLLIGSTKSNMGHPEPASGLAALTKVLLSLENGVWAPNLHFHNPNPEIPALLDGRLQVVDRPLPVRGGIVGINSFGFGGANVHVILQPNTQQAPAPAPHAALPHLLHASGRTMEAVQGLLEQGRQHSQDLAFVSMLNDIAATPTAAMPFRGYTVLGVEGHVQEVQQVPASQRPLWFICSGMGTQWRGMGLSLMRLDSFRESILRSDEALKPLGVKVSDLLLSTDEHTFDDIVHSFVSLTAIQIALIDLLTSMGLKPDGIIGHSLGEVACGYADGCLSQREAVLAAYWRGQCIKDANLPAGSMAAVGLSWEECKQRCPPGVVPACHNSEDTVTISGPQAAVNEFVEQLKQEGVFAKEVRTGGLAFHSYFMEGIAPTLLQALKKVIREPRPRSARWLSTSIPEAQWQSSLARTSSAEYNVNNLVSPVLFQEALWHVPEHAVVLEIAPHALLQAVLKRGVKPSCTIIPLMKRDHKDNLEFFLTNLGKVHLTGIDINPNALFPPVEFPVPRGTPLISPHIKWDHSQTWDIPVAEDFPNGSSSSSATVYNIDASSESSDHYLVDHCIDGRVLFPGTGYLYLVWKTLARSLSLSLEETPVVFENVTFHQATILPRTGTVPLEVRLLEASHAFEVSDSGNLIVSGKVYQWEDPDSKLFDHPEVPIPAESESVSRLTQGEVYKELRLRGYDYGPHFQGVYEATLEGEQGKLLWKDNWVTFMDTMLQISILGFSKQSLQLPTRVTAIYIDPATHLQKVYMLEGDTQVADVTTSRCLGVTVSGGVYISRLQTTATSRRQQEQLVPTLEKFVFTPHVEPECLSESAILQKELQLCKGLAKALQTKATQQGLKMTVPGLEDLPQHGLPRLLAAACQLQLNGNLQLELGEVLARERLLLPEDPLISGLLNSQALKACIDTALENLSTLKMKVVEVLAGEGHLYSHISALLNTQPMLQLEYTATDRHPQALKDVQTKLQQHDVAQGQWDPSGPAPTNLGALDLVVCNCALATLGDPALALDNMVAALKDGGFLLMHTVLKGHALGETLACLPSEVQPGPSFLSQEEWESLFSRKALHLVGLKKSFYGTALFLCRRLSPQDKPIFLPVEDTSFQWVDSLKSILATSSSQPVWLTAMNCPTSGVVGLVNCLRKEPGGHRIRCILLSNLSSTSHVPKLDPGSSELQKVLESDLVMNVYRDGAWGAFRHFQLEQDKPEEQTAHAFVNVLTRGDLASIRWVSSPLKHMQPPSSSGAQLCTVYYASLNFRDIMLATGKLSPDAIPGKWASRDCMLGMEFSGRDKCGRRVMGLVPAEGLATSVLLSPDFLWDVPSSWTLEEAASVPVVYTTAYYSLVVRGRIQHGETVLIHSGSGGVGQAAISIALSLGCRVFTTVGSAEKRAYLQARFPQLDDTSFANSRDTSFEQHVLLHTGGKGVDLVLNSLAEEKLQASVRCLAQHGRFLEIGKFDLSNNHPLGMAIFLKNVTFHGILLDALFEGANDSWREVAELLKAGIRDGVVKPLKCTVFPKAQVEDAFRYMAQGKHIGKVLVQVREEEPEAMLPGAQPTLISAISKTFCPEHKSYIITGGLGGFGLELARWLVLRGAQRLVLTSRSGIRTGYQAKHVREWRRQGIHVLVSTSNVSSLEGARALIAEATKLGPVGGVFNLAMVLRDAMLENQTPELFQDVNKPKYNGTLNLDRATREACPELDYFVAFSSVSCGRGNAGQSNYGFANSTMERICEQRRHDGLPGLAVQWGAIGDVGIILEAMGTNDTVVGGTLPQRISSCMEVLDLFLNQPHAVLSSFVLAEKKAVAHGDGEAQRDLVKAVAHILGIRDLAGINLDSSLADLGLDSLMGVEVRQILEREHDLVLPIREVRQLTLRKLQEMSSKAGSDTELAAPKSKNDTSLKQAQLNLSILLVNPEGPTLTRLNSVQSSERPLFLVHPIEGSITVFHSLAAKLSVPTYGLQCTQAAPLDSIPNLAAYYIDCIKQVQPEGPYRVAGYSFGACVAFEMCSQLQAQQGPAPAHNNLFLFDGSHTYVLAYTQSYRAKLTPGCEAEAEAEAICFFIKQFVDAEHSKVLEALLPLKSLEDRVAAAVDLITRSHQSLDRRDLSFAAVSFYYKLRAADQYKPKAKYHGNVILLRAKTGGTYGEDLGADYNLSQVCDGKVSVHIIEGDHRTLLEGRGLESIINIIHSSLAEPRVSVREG
// NB: equality with 10 µM counts as Not satisfied; only IC50 strictly below is Satisfied

>  <MOLECULE>
O=c1[nH]c2cc(Cl)c([N+](=O)[O-])cc2c(O)c1-c1cc(F)cc(F)c1

>  <TARGET_OR_TEST_SYSTEM>
UniProtKB P12785

>  <CATEGORY_LABEL>
Satisfied

$$$$
>  <MOLECULE>
CCCCCCCCCC[C@@H]1OC(=O)c2ccccc2[C@H]1C(=O)O (relative stereo)

>  <TARGET_OR_TEST_SYSTEM>
UniProtKB P12785

>  <CATEGORY_LABEL>
Not satisfied

$$$$
>  <MOLECULE>
C=C1C(=O)S[C@H](CCCCCCCCCC)[C@H]1C(=O)O

>  <TARGET_OR_TEST_SYSTEM>
UniProtKB P12785

>  <CATEGORY_LABEL>
Satisfied

$$$$
>  <MOLECULE>
C=C1C(=O)S[C@H](CCCCCCCCC)[C@H]1C(=O)O

>  <TARGET_OR_TEST_SYSTEM>
UniProtKB P12785

>  <CATEGORY_LABEL>
Satisfied

$$$$
>  <MOLECULE>
Cc1ccc(C(=O)N2CCC(c3ccc(C#N)cc3)CC2)cc1NC(=O)c1ccc(N2CCCC2)nc1

>  <TARGET_OR_TEST_SYSTEM>
UniProtKB P12785

>  <CATEGORY_LABEL>
Satisfied

$$$$
>  <MOLECULE>
O=c1[nH]c2ccc([N+](=O)[O-])cc2c(O)c1-c1ccccc1

>  <TARGET_OR_TEST_SYSTEM>
UniProtKB P12785

>  <CATEGORY_LABEL>
Satisfied

$$$$
>  <MOLECULE>
O=c1[nH]c2cc(Cl)c([N+](=O)[O-])cc2c(O)c1-c1ccc(-c2ccccc2)cc1

>  <TARGET_OR_TEST_SYSTEM>
UniProtKB P12785

>  <CATEGORY_LABEL>
Satisfied

$$$$
>  <MOLECULE>
CCCCCCCCCC[C@H]1OC(=O)C(=C(C)C)[C@@H]1C(=O)O (relative stereo)

>  <TARGET_OR_TEST_SYSTEM>
UniProtKB P12785

>  <CATEGORY_LABEL>
Not satisfied

$$$$
>  <MOLECULE>
O=c1[nH]c2cc(Cl)c([N+](=O)[O-])cc2c(O)c1-c1nnn[nH]1

>  <TARGET_OR_TEST_SYSTEM>
UniProtKB P12785

>  <CATEGORY_LABEL>
Satisfied

$$$$
>  <MOLECULE>
CCCCCCC[C@H]1SC(=O)c2ccccc2[C@@H]1C(=O)O (relative stereo)

>  <TARGET_OR_TEST_SYSTEM>
UniProtKB P12785

>  <CATEGORY_LABEL>
Not satisfied

$$$$
>  <MOLECULE>
O=c1[nH]c2ccccc2c(O)c1-c1ccccc1

>  <TARGET_OR_TEST_SYSTEM>
UniProtKB P12785

>  <CATEGORY_LABEL>
Not satisfied

$$$$
>  <MOLECULE>
Cc1cc(C)c(-c2nc3cc(S(C)(=O)=O)cnc3[nH]2)cc1C(=O)N1CCC(c2ccc(C#N)cc2)CC1

>  <TARGET_OR_TEST_SYSTEM>
UniProtKB P12785

>  <CATEGORY_LABEL>
Satisfied

$$$$
>  <MOLECULE>
CCCCCCCC[C@H]1SC(=O)c2ccccc2[C@@H]1C(=O)O (relative stereo)

>  <TARGET_OR_TEST_SYSTEM>
UniProtKB P12785

>  <CATEGORY_LABEL>
Not satisfied

$$$$
>  <MOLECULE>
CCCCCCCCCCC[C@H]1OC(=O)C(=C(C)C)[C@@H]1C(=O)O (relative stereo)

>  <TARGET_OR_TEST_SYSTEM>
UniProtKB P12785

>  <CATEGORY_LABEL>
Not satisfied

$$$$
>  <MOLECULE>
C=C1C(=O)S[C@H](CCCCCCCCCCC)[C@H]1C(=O)O

>  <TARGET_OR_TEST_SYSTEM>
UniProtKB P12785

>  <CATEGORY_LABEL>
Satisfied

$$$$
>  <MOLECULE>
C=C1C(=O)S[C@H](CCCCCCCC)[C@H]1C(=O)O

>  <TARGET_OR_TEST_SYSTEM>
UniProtKB P12785

>  <CATEGORY_LABEL>
Satisfied

$$$$
>  <MOLECULE>
O=c1[nH]c2cc(Cl)c([N+](=O)[O-])cc2c(O)c1-c1ccc(OCc2ccccc2)cc1

>  <TARGET_OR_TEST_SYSTEM>
UniProtKB P12785

>  <CATEGORY_LABEL>
Satisfied

$$$$
>  <MOLECULE>
O=c1[nH]c2ccc(S(=O)(=O)C(F)(F)F)cc2c(O)c1-c1ccccc1

>  <TARGET_OR_TEST_SYSTEM>
UniProtKB P12785

>  <CATEGORY_LABEL>
Not satisfied

$$$$
>  <MOLECULE>
O=c1cc(O)c2cc([N+](=O)[O-])ccc2[nH]1

>  <TARGET_OR_TEST_SYSTEM>
UniProtKB P12785

>  <CATEGORY_LABEL>
Not satisfied

$$$$
